Data origin, for the record: PubChem BioAssay (NCI)

tested on: OVCAR-8 ovarian; experiment: NCI-60 one-dose screen, 48 h (100 = growth as untreated, 0 = no growth, -100 = all killed); details: 10 µM unless noted
The panel holds about 83,000 compounds, 20% with a hit somewhere; the sample as a whole holds those more often. The source made the active and inactive calls. Rule for the calls: active = growth percent below 10; inactive = the rest.
Give measured growth for each item. Keep answers brief.

- molecule: "Brc1ccc2[nH]cc(-c3nc(-c4c[nH]c5ccncc45)cs3)c2c1"
  experimental-target: "OVCAR-8 ovarian"
  growth: "-64.5% (active)"

# per-item lookup of growth; items listed below
1. C#Cc1cccc(NC(=O)c2ccc(NC(=O)C=C)cc2)c1
2. COc1ccc2sc3c(NCCCNCCO)nc4ccccc4c3c(=O)c2c1
3. CCc1cccc2c3c(sc12)C(c1ccc(F)cc1)C(C#N)=C(N)O3 (stereo unspecified)
4. CCCCCCN(CCCCCC)c1ccc(/C=C2/SC(=O)NC2=O)c(C)c1
5. O=c1ccc(N=Nc2ccc([N+](=O)[O-])cc2)ccc1O

Output line:
1. 75.9% [8.25 µM] (inactive)
2. 54.6% (inactive)
3. 32.9% (inactive)
4. 80.6% (inactive)
5. 9.9% (active)
